test system: Brain; experiment: Biodistribution in C57Bl/6JRccHsd mouse brain at 2.86 +/- 1.26 MBq, iv measured at 40 mins by SPECT analysis; assay type: ADME, organism-based; details: in vivo
propertyMeasured: Drug uptake (%ID)
# number only, unit %ID dropped from output

Q) Request: Drug uptake, test system Brain, entry "N#C[C@@H]1CCCN1C(=O)[C@@H]1CCCN1C(=O)CCCc1ccc([123I])cc1"
A) 0.76

====

experiment: Biodistribution in brain of iv dosed C57BL/6JRccHsd mouse LPS-induced acute neuroinflammation model dosed 24 hrs after LPS challenge and measured at 80 mins post dose; type: ADME, organism-based
propertyMeasured: tissue uptake at 80 min (%ID)
Return type: number; implicit unit %ID.

Q) tissue uptake at 80 min lookup needed for "N#C[C@@H]1CCCN1C(=O)[C@@H]1CCCN1C(=O)CCCc1ccc([123I])cc1" , thanks.
A) 0.6
